- TARGET OR TEST SYSTEM: T1, cynomolgus CD40-Fc protein (cynomolgus, UniProt G7PG38 21-193)
- T1 construct: not shown: Fc part
- ASSAY EXPLANATION: BLI (ForteBio), IgG on AHQ sensor, 100 nM CD40-Fc in solution, bivalent, 1:1 model
What Kd was measured for each of the following?
One number for each entry, in nM.

BINDER: ADI-55168 (antibody, human IgG1, kappa, V domains shown) VH: EVQLVESGGGLVQPGRSLRLSCAASGFTFDTYAMHWVRQAPGKGLEWVSGISWSSGSIHYADSVKGRFTISRDNAKNSLYLQMNSLRAEDTAVYYCAKDPTATTGARGYFDLWGRGTLVTVSS VL: DIQMTQSPSSVSASVGDRVTITCEASQVISSWLAWYQQKPGKAPKLLIYAASYLQSGVPSRFSGSGSGTDFTLTISSLQPEDFATYYCQQHSSFPPTFGGGTKVEIKR
Kd / nM: 0.122

Request: Endpoint output: Kd of ADI-47741 (antibody, human IgG1, kappa, V domains shown) VH: QVQLQESGPGLVKPSETLSLTCTVSGGSISSYYWSWIRQPPGKGLEWIGSIYYSGSTNYNPSLKSRVTISVDTSKNQFSLKLSSVTAADTAVYYCARDANYYKWHPYWGQGTLVTVSS VL: EIVLTQSPGTLSLSPGERATLSCRASQSVSSDYLAWYQQKPGQAPRLLIYGASSRATGIPDRFSGSGSGTDFTLTISRLEPEDFAVYYCQQVLSYPPTFGGGTKVEIKR . Value?
Result: 0.559
